B1: Ankyrin repeat and SAM domain-containing protein 6, residues 774 to 836; numbered along this chain, Q68DC2 (parent)
chain: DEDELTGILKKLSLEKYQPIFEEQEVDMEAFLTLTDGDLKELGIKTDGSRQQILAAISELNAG

variants of: B1; experiment: abundance fitness (aPCA) (normalised: wild type 0, dead -1); higher = more abundant; growth selection in yeast, the domain comes from the species named; settings: Homo sapiens
reported_property: abundance fitness
Respond numerically, and do not add a unit to the figure.

sequence_code: DEDELTGILKKLSLEKYQPIFEEQEVDMEAFLTLTDGDLDELGIKTDGSRQQILAAISELNAG [K40D]
abundance fitness: -0.084

Supply measured abundance fitness of DEDELTGILKKLSLEKYQPIFEEQECDMEAFLTLTDGDLKELGIKTDGSRQQILAAISELNAG [V26C] in your reply.
-0.353

// fetch abundance fitness given entry DEDELTGILKKLSLEKYQPIFEEQEVDMEAFITLTDGDLKELGIKTDGSRQQILAAISELNAG [L32I]
-0.181
